src = patent EP4722213A1

Molecular target: SOS1 (Homo sapiens, UniProt Q07889)
Sequence (Q07889 1-1333): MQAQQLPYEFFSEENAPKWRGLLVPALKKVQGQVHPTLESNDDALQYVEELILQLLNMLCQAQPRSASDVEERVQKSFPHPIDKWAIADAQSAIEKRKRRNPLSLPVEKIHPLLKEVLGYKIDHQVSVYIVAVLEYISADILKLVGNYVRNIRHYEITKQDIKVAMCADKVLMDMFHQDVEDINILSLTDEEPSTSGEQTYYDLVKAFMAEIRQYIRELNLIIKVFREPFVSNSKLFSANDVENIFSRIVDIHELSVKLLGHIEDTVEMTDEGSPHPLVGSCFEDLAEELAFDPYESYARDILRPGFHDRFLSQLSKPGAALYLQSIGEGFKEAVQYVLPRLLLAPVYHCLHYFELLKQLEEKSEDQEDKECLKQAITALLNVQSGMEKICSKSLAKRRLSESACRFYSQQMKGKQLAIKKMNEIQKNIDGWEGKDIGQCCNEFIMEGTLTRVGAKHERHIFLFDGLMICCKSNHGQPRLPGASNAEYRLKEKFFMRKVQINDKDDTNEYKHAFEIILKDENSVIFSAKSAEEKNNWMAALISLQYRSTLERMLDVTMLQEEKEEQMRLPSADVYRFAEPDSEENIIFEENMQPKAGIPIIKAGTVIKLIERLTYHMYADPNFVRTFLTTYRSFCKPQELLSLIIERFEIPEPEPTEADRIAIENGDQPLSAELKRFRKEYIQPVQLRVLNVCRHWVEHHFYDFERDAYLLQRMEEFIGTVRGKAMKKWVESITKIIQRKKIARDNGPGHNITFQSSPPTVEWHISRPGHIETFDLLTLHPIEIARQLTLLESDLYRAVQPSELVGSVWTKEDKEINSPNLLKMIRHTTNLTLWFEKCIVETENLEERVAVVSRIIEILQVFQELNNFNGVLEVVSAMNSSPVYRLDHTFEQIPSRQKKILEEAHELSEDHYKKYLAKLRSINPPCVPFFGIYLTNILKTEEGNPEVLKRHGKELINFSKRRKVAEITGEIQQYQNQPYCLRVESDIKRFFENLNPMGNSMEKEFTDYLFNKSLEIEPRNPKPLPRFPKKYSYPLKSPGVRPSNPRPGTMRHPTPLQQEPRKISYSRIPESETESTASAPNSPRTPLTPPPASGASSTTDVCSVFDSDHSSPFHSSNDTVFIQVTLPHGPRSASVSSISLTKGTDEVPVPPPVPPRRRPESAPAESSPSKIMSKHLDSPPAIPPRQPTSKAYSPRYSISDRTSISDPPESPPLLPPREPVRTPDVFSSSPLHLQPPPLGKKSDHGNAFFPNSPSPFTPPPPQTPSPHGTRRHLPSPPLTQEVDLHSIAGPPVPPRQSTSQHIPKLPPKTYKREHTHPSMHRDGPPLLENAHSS
Counter-ions that a name gives are not always drawn.
Recorded IC50, one value per entry.

{"MOLECULE": "C[C@@H](Nc1nnc(N2CCC3(CCOCC3)C2)c2cc(=O)n(C3(C)CC3)cc12)c1cccc(C(F)F)c1F", "IC50, nM": 4.2}
{"MOLECULE": "Cc1c([C@@H](C)Nc2nnc(N3CC4CC4C3)c3cc(=O)n(C4CC4)cc23)cccc1C(F)(F)F (stereo partly shown)", "IC50, nM": 10.6}
{"MOLECULE": "C[C@@H](Nc1nnc(NC(C2CC2)C2CC2)c2cc(=O)n(C3(C)CC3)cc12)c1cccc(C(F)F)c1F", "IC50, nM": 6.1}
{"MOLECULE": "Cc1c(C#N)cccc1[C@@H](C)Nc1nnc(N2CCN(C3CCC3)CC2)c2cc(=O)n(C3CC3)cc12", "IC50, nM": 10.9}
{"MOLECULE": "CCN1CCN(c2nnc(N[C@H](C)c3cccc(C(F)F)c3F)c3cn(C4CCC4)c(=O)cc23)CC1", "IC50, nM": 5}
{"MOLECULE": "CCN1CCN(c2nnc(N[C@H](C)c3cc(N)cc(C)c3F)c3cn(C4(C)CC4)c(=O)cc23)CC1 [Example 160, formate]", "IC50, nM": 5.7}
{"MOLECULE": "C[C@@H](Nc1nnc(N2CCN(C3CC3)CC2)c2cc(=O)n(C3CC(F)(F)C3)cc12)c1cccc(C(F)F)c1F", "IC50, nM": 5.9}

###

test: Mouse pharmacokinetic test; type: in vivo; settings: plasma, female Balb/c mice, IV 1 mg/kg, PO 10 mg/kg via gavage

{"MOLECULE": "Cc1c(C#N)cccc1[C@@H](C)Nc1nnc(C)c2cnc(N3CCOCC3)cc12 [MRTX0902, reference compound]", "bioavailability, %": 40.4}

###

molecular target: UniProt:Q07889
Threshold 8 nM: IC50 strictly smaller gives criterion met, otherwise criterion not met.

{"COMPOUND": "Cc1c(C#N)cccc1[C@@H](C)Nc1nnc(N2CCS(=O)(=O)CC2)c2cc(=O)n(C3CC3)cc12 [Example 44]", "CLASSIFICATION": "criterion not met"}
{"COMPOUND": "Cc1c([C@@H](C)Nc2nnc(N3CCN(C)CC3)c3cc(=O)n(C4CC4)cc23)cccc1C(F)(F)F [Example 86]", "CLASSIFICATION": "criterion met"}
{"COMPOUND": "Cc1c([C@@H](C)Nc2nnc(N3CCN(C4CCC4)CC3)c3cc(=O)n(C4(C)CC4)cc23)cccc1C(F)(F)F [Example 94]", "CLASSIFICATION": "criterion met"}
{"COMPOUND": "C[C@@H](Nc1nnc(N2CCN(C)CC2)c2cc(=O)n(C3(C)CC3)cc12)c1cccc2c1CCC2(F)F [Example 208]", "CLASSIFICATION": "criterion met"}
{"COMPOUND": "Cc1c(C(F)F)cccc1[C@@H](C)Nc1nnc(N2CCN(C)CC2)c2cc(=O)n(C3CC3)cc12 [Example 210]", "CLASSIFICATION": "criterion met"}
{"COMPOUND": "Cc1c(C#N)cccc1[C@@H](C)Nc1nnc(N2CC(F)(F)C2)c2cc(=O)n(C3(C)CC3)cc12 [Example 48]", "CLASSIFICATION": "criterion not met"}
{"COMPOUND": "C[C@@H](Nc1nnc(N2CCC[C@H](CO)C2)c2cc(=O)n(C3(C)CC3)cc12)c1cccc2c1CCC2(F)F [Example 207]", "CLASSIFICATION": "criterion met"}
{"COMPOUND": "C[C@@H](Nc1nnc(N)c2cc(=O)n(C3(C)CC3)cc12)c1cccc(C(F)F)c1F.O=CO [Example 74, formate]", "CLASSIFICATION": "criterion met"}
{"COMPOUND": "C[C@@H](Nc1nnc(N(C)C2CC2)c2cc(=O)n(C3(C)CC3)cc12)c1cccc(C(F)F)c1F [Example 225]", "CLASSIFICATION": "criterion met"}

###

Recorded pIC50, one value per entry.
Target: UniProtKB Q07889
Sequence (Q07889 1-1333): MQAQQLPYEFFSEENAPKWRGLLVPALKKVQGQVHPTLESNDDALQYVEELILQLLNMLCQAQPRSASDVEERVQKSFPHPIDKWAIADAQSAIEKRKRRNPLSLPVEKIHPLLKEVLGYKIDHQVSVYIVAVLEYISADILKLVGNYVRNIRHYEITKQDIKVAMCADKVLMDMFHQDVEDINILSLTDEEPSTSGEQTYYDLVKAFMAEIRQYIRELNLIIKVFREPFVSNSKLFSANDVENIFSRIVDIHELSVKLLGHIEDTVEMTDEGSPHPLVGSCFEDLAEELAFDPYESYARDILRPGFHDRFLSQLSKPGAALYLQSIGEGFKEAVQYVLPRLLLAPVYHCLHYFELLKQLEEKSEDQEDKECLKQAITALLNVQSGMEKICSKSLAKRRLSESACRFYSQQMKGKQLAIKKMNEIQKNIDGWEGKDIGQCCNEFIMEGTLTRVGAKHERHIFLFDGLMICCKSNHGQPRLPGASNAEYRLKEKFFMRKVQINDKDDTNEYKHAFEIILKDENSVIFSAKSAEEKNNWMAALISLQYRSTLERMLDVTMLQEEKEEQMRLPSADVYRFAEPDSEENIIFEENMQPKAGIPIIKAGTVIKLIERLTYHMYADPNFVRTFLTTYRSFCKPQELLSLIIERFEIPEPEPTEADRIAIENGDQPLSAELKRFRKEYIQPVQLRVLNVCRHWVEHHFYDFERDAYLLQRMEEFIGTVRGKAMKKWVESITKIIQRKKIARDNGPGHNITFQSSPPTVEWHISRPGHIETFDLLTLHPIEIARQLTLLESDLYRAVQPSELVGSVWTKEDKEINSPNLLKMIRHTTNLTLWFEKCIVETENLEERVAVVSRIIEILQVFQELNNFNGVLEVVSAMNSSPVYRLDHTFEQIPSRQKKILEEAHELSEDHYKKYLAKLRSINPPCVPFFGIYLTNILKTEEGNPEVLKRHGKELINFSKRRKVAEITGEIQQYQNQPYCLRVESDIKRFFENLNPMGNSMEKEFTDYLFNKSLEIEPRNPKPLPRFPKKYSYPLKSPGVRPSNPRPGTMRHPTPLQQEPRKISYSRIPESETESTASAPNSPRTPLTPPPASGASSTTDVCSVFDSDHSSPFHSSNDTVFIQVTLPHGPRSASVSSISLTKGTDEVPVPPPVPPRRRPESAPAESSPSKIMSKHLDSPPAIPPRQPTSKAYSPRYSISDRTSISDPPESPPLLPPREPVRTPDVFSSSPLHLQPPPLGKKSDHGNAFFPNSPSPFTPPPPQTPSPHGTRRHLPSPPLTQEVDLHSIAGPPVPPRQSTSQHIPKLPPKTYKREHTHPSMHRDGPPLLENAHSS
pIC50: −log10 of the molar value.

{"COMPOUND": "C[C@@H](Nc1nnc(N2CC3CC2CO3)c2cc(=O)n(C3(C)CC3)cc12)c1cccc(C(F)(F)F)c1F (stereo partly shown) [Example 175]", "TGT": "UniProtKB Q07889", "pIC50": 7.89}
{"COMPOUND": "C[C@@H](Nc1nnc(-n2ccnc2)c2cc(=O)n(C3CC3)cc12)c1cccc(C(F)F)c1F [Example 31]", "TGT": "UniProtKB Q07889", "pIC50": 7.71}
{"COMPOUND": "Cc1c([C@@H](C)Nc2nnc(N3CCC(F)(F)CC3)c3cc(=O)n(C4CC4)cc23)cccc1C(F)(F)F [Example 58]", "TGT": "UniProtKB Q07889", "pIC50": 7.00}
{"COMPOUND": "Cc1c(C#N)cccc1[C@@H](C)Nc1nnc(N2CCN(C3CC3)CC2)c2cc(=O)n(C3CC3)cc12 [Example 99]", "TGT": "UniProtKB Q07889", "pIC50": 7.95}
{"COMPOUND": "Cc1c(C#N)cccc1[C@@H](C)Nc1nnc(N2CCN(C)CC2)c2cc(=O)n(N3CC4CCCC4C3)cc12 (stereo partly shown) [Example 150]", "TGT": "UniProtKB Q07889", "pIC50": 8.26}
{"COMPOUND": "Cc1cc(N)cc([C@@H](C)Nc2nnc(N3CCN(C)CC3)c3cc(=O)n(C4CC4)cc23)c1F [Example 141]", "TGT": "UniProtKB Q07889", "pIC50": 8.11}
{"COMPOUND": "Cc1c(C#N)cccc1[C@@H](C)Nc1nnc(N2CCN(C)CC2)c2cc(=O)n(C3(C)CC3)cc12 [Example 82]", "TGT": "UniProtKB Q07889", "pIC50": 8.05}
